Measured values drawn from patent US10774080B2 for this set.

Assay: Assay 5: rat pharmacokinetics
Type: in vivo, male Sprague Dawley rats
Conditions: male, Sprague Dawley, plasma; rat, IV (1 mg/kg); read-out: Vdss
Method: Assay 5: Rat Pharmacokinetics Assay The objective of this study was to assess the pharmacokinetics of compound (I) in plasma following single oral (PO, n=3) or intravenous (IV, n=2) administration to male Sprague Dawley rats. […] Plasma levels of compound (I) were determined by LC-MS-MS analysis. Standard PK parameters were determined using Phoenix WinNonlin, (Certara Inc.).
result type: Vd (L/kg)
Response body: numeric value in L/kg, unit text excluded.

Look up Vd: `CCS(=O)(=O)N1[C@@H]2CCC[C@H]1C[C@H](N(C)c1nc(CO)c(F)c(Nc3cc(C)[nH]n3)n1)C2` 1.1

###

Test: Assay 5: rat pharmacokinetics
Type: in vivo, male Sprague Dawley rats
Settings: male, Sprague Dawley; rat plasma, IV (1 mg/kg)
Method: Assay 5: Rat Pharmacokinetics Assay The objective of this study was to assess the pharmacokinetics of compound (I) in plasma following single oral (PO, n=3) or intravenous (IV, n=2) administration to male Sprague Dawley rats. […] Plasma levels of compound (I) were determined by LC-MS-MS analysis. Standard PK parameters were determined using Phoenix WinNonlin, (Certara Inc.).
result type: AUC(0-t) (ng·h/mL)
The reply should be a number in ng·h/mL, with the unit left off.

Recorded AUC(0-t) of `CCS(=O)(=O)N1[C@@H]2CCC[C@H]1C[C@H](N(C)c1nc(CO)c(F)c(Nc3cc(C)[nH]n3)n1)C2` , please. 291
